Reference source for all entries: patent US20220192996A1

# experiment-description: Octanol/water partition coefficient
# Assay type: physicochemical
# measurement-parameters: octanol / aqueous buffer solution; Log10, octanol / aqueous buffer pH 7
Counter-ions that a name gives are not always drawn.
assay-readout: logD

logD in this record for CCCc1nc(C)c2c(=O)[nH]c(-c3cc(S(=O)(=O)N4CCN(CC)CC4)ccc3OCC)nn12 [vardenafil hydrochloride hydrate] : 0
